- System: PXR:RXRa (NR concentration 270 nM, RXRa partner concentration 90 nM)
- procedure summary: PBM binding z-score (relative to random genomic background probes); higher = stronger binding; sequences stand for … in GC…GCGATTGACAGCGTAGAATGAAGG
quantity name: PBM binding z-score
Form rule: numeric answer, no unit written next to it.

API: value(readout=PBM binding z-score, system=PXR:RXRa (NR concentration 270 nM, RXRa partner concentration 90 nM)) for record CCTAGTTGGTCAAGGTCACACCCGCTATAGGTAC
3.95

Try this sequence next: CGAACTAGGTCATCCAGGTCAGTGAATACATTGA
3.99

Try this sequence next: TCTTGTAGATCGATAGAGGTTAAGAAAGTGCGCT
2.67

Try this sequence next: CGTCCGAGGTCAAGGTCAGTGAAAGAGACTCGAA
5.51

Try this sequence next: CAAACTAGGTCAAGGTCTAAGTCGGTTTGTGCCA
1.67

Try this sequence next: CGTCAAACTTCAACTAAGGTAACGTAAAGCACGC
0.396

====

- System: RARb homodimer (NR concentration 270 nM)
- procedure summary: PBM binding z-score (relative to random genomic background probes); higher = stronger binding; sequences stand for … in GC…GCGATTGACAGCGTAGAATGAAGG
quantity name: PBM binding z-score
Form rule: numeric answer, no unit written next to it.

Name the recorded PBM binding z-score for ATCGAAAGGTCAACGAGGTGAGTATACACCGTTT .
5.51

Try this sequence next: TCGAGTAGGTCACGGGGGCATTCAGGGATGAAGA
4.32

Try this sequence next: ATATGTAGGTTAGGGTCAGTCAGAAAGTAGGGAA
3.34

Try this sequence next: TAGCCTAGGGCATTCAGGGGCCAGTATAGAAAGC
1.35

Try this sequence next: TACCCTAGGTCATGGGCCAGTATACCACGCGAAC
3.19

Try this sequence next: CCTTAGGGGTCACGAGGTTATAGCACGACGAGCG
5.21

Try this sequence next: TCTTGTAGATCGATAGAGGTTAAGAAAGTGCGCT
0.946

Try this sequence next: CTATGTAGGTCAAGGGGGTCATTCAGTTTGAAAG
4.85

Try this sequence next: TCGTGTAGGTTACGGGGGCATTCAGGGATGAAGA
2.92

Try this sequence next: CGTCAAAGGTCATAGGAGGTCAGTGAAGACAGAT
5.95

Try this sequence next: CCTACTGGGCCATTCAGAGGTCAATGATCATATG
4.28

Try this sequence next: GCTTACGGGTCAAAGGTCATAGCATGAATAGAAT
5.12

Try this sequence next: CCAACTAGGTCAAAGGACAGTGAAAGGCGACGTA
3.15

Try this sequence next: CTATGTAGGTTAAGGGAGTCATTCAGTTTGAAAG
0.609

Try this sequence next: ATATGTAGGTTAAGCGTCATTCAGGTTGGTTCGC
0.88

Try this sequence next: CGAACGAGGTCACCAGGACAGTGAAGAGGTTGGA
4.89

Try this sequence next: ATATGTAGTTTATCGGGTCATTCAGTTTGCGCAT
2.91

Try this sequence next: CAAACTAGGTCACAAAAGGTCAAAGTCGAATGAC
5.82

Try this sequence next: GTTACAGGGTCAAGGCCAGAGTACGCGTATTGAT
4.1

Try this sequence next: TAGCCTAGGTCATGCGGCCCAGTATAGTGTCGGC
2.78

Try this sequence next: ATATGTAGGTTAGCTGGGGTCATTCACACTAGGC
3.87

Try this sequence next: CCTTACGGGTCACGAGGTCATAGCACGACGAGCG
4.95

Try this sequence next: CAAACTAGGTCACCGAAAGGTCAAAGTCCGCATG
5.37

Try this sequence next: ATCGAAAGGTCTAAGGTGAGTATACCCACCCGAA
1.08

Try this sequence next: CGAACGAGGTCATTGACAGGACAGTGAATAGTAA
3.73

Try this sequence next: CAAACTAGGTCAAGAGGTCAAAGTTCGCTTCCCG
5.71

Try this sequence next: TGTCAAAGGTCAAAGGTAACGTAAGTATCCACAC
5.11

Try this sequence next: CCTACTGGGCCACTAAAGGTCATTGATTCAGTGA
4.55

Try this sequence next: ATCGAAAGGTCAAGGTGAGTATAGAGAAAGGGAA
5.32

Try this sequence next: CGTCCAAGGTCAAAGGTCAATGAAGAGATGACGG
5.56

Try this sequence next: AGTCAAAGTTCAGGACGAGGTAACGTTAAGCACG
3.3

Try this sequence next: CCTGCGAGGTCATGGTCAGCTAATCTACAGTATG
4.02

Try this sequence next: TGTCAAAGTTCAAAGGTCACGTAAGTATCCACAC
5.93

Try this sequence next: CCGAGAAGGTTACGAGGGGGCATTCAGTGCGAAT
2.66

Try this sequence next: CGTACAAGGTCAAAGGTCAGTGAAGAGATGACGG
5.35

Try this sequence next: CGTCAAAGTTCAACTAAGGTCACGTAAAGCACGC
6.11

Try this sequence next: GCTGCGAGGTCAACTGATGGTCAGCTAAAGCTCG
4.83

Try this sequence next: CAAACGAGGTCAAGGTCAAAGTCGGTTTGTGCCA
5.54

Try this sequence next: CCTTACGGGTCCCTCCAGGTTATAGCATCGGAGT
0.0845

Try this sequence next: TGTCAAAGTTCAAAGGTGACGTAAGTATCCACAC
4.05

Try this sequence next: GGAACGAGGGCATTCGAGTTCATAGCATGGCGAT
2.4

Try this sequence next: CGAACTAGGTCAAGGGACAGTGAAAGGCGACGTA
2.99

Try this sequence next: GGAACGAGGTCAAGTTGATAGCAGAGTTTGATGG
4.59

Try this sequence next: CTCGAAAGGTCATGCTCAGGTGAGTATACCAAAC
5.14

Try this sequence next: TATACGGGGTCAAAGGCCAGAGTACGAATGTCGA
4.34

Try this sequence next: TAGCCTAGGTCGTTCAGGGGCCAGTATAGAAAGC
1.63

Try this sequence next: ATATGTAGGTTACCTGGGGTCATTCAGACTAGGC
4.13

Try this sequence next: CCTACTGGTCCAAGGTCATTGATCAGTCAAAGCA
3.76

Try this sequence next: CAAACGAGGTCACGAAAGGTCAAAGTCGAATGAC
6.1

Try this sequence next: ATCGAAAGGTCGTGAGGTAAGTATACAGAAAGGC
2.76

Try this sequence next: GCTAGTTGGTCAGTAAAATGTCACACACCGGTCG
1.43

Entry source: the supplement of paper PMC6555819
